Where do the numbers come from? From ChEMBL document CHEMBL4402602.

Entries annotated with measured solubility
test.method.notes: Solubility of compound at pH 7.4
Format: physicochemical
study.conditions: buffer
Report as a plain number; the unit µM is understood.

| record.smiles | measurement.unit | recorded.value |
| --- | --- | --- |
| COc1nn(C)cc1Nc1ncc(C)c(-c2c[nH]c3c(C(=O)Nc4ccc(C)nc4C)cccc23)n1 | µM | 0.1 |
| COc1nn(C)cc1Nc1ncc(C)c(-c2c[nH]c3c(NCc4ccc(C)nc4C)cccc23)n1 | µM | 0.1 |
| COc1nn(C)cc1Nc1ncc(C)c(-c2c[nH]c3c(NC(=O)c4cccnc4C)cccc23)n1 | µM | 41 |
| Cc1cnc(NC(=O)C2CC2)nc1-c1c[nH]c2c(NC(=O)CN3CCN(C)CC3)cccc12 | µM | 230 |

Now look at this one.
## Input Note solubility for the compound shown: Cc1ccc(C(=O)Nc2cccc3c(-c4nc(NC(=O)C5CC5)ncc4C)c[nH]c23)c(C)n1
## Output 2
